ID50 for assorted compounds
- System: T9A4 human hepatic cells
- experimentalProtocol: In vitro analysis of the hypocholesterolaemic effect: de novo synthesis of cholesterol measured by incorporation of C14-acetate
- Type: cell-based
- conditionLabel: main purified oxylanosterol molecules
Entry rule: numbers only, all in μq/ml.

chemicalSmiles: C/C(=C\CC[C@@H](C)[C@H]1CC[C@@]2(C)C3=CC[C@H]4C(C)(C)[C@@H](O)CC[C@]4(C)C3=CC[C@]12C)C(=O)O
displayUnit: μq/ml
ID50: 0.5

Task: Give the measured ID50 for C/C(C=O)=C\CC[C@@H](C)[C@H]1CC[C@@]2(C)C3=CC[C@H]4C(C)(C)C(=O)CC[C@]4(C)C3=CC[C@]12C
Result: 7

Task: Answer with reported ID50 of C/C(=C\CC[C@@H](C)[C@H]1CC[C@@]2(C)C3=CC[C@H]4C(C)(C)C(=O)CC[C@]4(C)C3=CC[C@]12C)CO
Result: 1

Task: Identify the reported ID50 for the following entry. C/C(=C\CC[C@@H](C)[C@H]1CC[C@@]2(C)C3=CC[C@H]4C(C)(C)[C@@H](O)CC[C@]4(C)C3=CC[C@]12C)CO
Result: 10
